Target system: HLA-A*0203 (human)
Protocol description: inhibition of 125I-labelled probe peptide binding to purified HLA, gel filtration
Experimental readout: IC50 (nM)

binder="SLQCVSLHLV (modifications not checked) [Peptide 1418.52 (HuK2.170.V10) …]" experimental_readout=IC50 experimental_value=2.8
binder="ITLSVGCTGAV (modifications not checked) [Peptide 1418.59 (HuK2.8.T2) …]" experimental_readout=IC50 experimental_value=40
